# study-system: acetylcholinesterase (AChE), human recombinant (Homo sapiens)
# Sequence (P22303 32-614): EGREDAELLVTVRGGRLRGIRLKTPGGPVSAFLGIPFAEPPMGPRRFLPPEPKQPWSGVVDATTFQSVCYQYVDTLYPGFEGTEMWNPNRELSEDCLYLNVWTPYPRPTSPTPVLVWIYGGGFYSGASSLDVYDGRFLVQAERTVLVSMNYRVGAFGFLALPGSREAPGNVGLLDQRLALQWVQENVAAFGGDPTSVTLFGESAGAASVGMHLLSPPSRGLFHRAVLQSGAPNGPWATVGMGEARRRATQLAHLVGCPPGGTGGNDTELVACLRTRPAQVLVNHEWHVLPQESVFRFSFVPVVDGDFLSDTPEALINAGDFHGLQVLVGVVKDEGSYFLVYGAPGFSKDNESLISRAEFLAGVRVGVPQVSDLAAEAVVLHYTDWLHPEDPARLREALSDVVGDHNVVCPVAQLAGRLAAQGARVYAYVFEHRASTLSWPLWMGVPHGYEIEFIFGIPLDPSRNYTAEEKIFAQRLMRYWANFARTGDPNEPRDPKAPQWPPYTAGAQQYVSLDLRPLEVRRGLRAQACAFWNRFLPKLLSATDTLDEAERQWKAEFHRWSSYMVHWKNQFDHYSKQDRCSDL
# assay-remarks: biochemical
# test-context: pre-incubation of the enzyme with inhibitor, read-out: IC50 (AChE, mE, hr)
measurement-name: log10(IC50) (log10 of the value in µM)
All values: log10 IC50 [µM].

The following molecules have reported results that may help.
| molecule | assay-value |
| --- | --- |
| COc1ccc2c3c1O[C@@H]1C[C@H](O)C=CC31CCN(C(=O)NC(C)(C)C)C2 (some centres unmarked) [SPH-1270] | 0.40 |
| COc1cc(C)c2c3c1O[C@@H]1C[C@H](O)C=CC31CC[N+](C)(Cc1ccc(C(F)(F)F)cc1)C2 (some centres unmarked) | 1.78 |
| COc1cc2c(cc1OC)C(=O)C(CCCCCN1CCC34C=CC(O)C[C@H]3Oc3c(OC)ccc(c34)C1)C2 (some centres unmarked) [SPH-1359] | -2.28 |
| COc1ccc2c3c1O[C@@H]1CC(O)C=CC31CCN(c1ccccc1)C2 (some centres unmarked) | -0.30 |
| COc1ccc2c3c1O[C@H]1CC(O)C=CC31CCN(C(=O)NC(C)C)C2 (some centres unmarked) | 0.90 |
| C=CCNC(=S)N1CCC23C=C[C@@H](O)C[C@H]2Oc2c(OC)ccc(c23)C1 (some centres unmarked) | 1.32 |
| COc1cc(C)c2c3c1O[C@@H]1C[C@H](O)C=CC31CCN(CCCN1CCCCC1)C2 (some centres unmarked) | 1.66 |

Okay, now this molecule:
I have this molecule here, COc1cc2c(cc1OC)C(=O)C(CCCCN1CCC34C=CC(O)C[C@H]3Oc3c(OC)ccc(c34)C1)C2 (some centres unmarked) [SPH-1376] , and I need its recorded log10(IC50). -1.70

###

# study-system: acetylcholinesterase (AChE), human recombinant (Homo sapiens)
# assay-remarks: biochemical
# test-context: pre-incubation of the enzyme with inhibitor, read-out: IC50 (AChE, mE, hr)
Where a name gives a salt, the structure may show the parent alone.
Can you tell me pIC50 for the items I'm about to list?
Answers are plain numbers, as −log10 of the molar value.

The following molecules have reported results that may help.
| molecule | assay-value |
| --- | --- |
| COc1ccc2c3c1O[C@@H]1CC(O)C=CC31CCN(CCCN1CCCCC1)C2 (stereo in doubt) [SPH-1371, Dihydrobromide, Dihydrate] | 6.44 |
| COc1ccc2c3c1O[C@H]1CC(O)C=C[C@@]31CC[N+](C)(CCCCl)C2 (single isomer, unassigned; (-)) | 6.46 |
| COc1ccc2c3c1O[C@H]1CC(O)C=C[C@@]31CCN(C(=O)OC(C)(C)C)C2 (relative stereo) | 4.64 |
| COc1ccc2c3c1O[C@@H]1C[C@H](O)C=CC31CCN(C(=O)NC(C)c1ccccc1)C2 (stereo partly shown) | 4.52 |
| COc1ccc2c3c1O[C@H]1CC(O)C=CC31CCN(CCCN1CCCCC1)C2 (stereo partly shown) | 5.05 |

For every record below, what is its pIC50?
1. COc1ccc2c3c1O[C@@H]1C[C@H](O)C=CC31CCN(CCC(=O)NC(C)(C)C)C2 (stereo partly shown)
2. COc1ccc2c3c1O[C@H]1CC(O)C=CC31CCN(C(=O)NC(C)(C)C)C2 (stereo partly shown)

1: 4.35; 2: 4.03
